- tested_target: Adenosine receptor A1 (Homo sapiens) (UniProt P30542)
- Sequence (P30542 whole entry): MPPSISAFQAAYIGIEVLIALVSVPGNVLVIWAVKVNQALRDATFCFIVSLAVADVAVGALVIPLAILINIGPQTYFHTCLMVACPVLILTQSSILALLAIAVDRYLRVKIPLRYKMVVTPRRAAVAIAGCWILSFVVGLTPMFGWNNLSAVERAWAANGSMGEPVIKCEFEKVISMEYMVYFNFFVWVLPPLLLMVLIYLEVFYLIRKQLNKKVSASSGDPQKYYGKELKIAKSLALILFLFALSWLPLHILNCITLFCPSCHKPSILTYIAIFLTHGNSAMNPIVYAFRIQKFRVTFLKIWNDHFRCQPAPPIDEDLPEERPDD
- method_notes: Activity at human adenosine A1 receptor in CHO cells assessed as effect on CPA induced inhibition of forskolin-stimulated cAMP production at 1 uM
- Assay type: functional, cell-based
- measurement_conditions: filed as antagonist
measured_quantity: Activity

Please review the following examples before continuing.
CC(C)Cc1nc2c(-c3ccccc3)cc(-c3ccccc3)nc2[nH]1    Antagonist
CC(C)c1nc2c(-c3ccccc3)cc(-c3ccccc3)nc2[nH]1    Antagonist
CCC(CC)c1nc2c(-c3ccccc3)cc(-c3ccccc3)nc2[nH]1    Antagonist
c1ccc(-c2cc(-c3ccccc3)c3nc(C4CCCC4)[nH]c3n2)cc1    Antagonist

We next turn to a different compound, shown below.
Entry c1ccc(-c2cc(-c3ccccc3)c3nc(C4CCCCC4)[nH]c3n2)cc1 — recorded Activity = Antagonist

###

- tested_target: UniProtKB P29274
- Sequence (P29274 whole entry): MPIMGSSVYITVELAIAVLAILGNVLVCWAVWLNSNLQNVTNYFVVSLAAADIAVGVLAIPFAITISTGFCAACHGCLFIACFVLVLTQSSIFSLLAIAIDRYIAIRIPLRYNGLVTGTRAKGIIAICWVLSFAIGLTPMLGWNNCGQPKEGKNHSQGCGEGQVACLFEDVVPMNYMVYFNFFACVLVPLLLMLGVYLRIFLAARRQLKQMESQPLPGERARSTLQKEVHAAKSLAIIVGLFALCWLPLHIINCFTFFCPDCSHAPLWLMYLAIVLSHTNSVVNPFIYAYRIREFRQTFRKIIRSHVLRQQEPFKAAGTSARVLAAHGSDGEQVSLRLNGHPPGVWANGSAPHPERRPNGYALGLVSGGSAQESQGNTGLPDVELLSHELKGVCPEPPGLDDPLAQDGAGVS
- method_notes: Displacement of [3H]ZM-241385 from human adenosine A2A receptor expressed in CHO cells
- Type: cell-based
measured_quantity: Ki

Please review the following examples before continuing.
CCc1nc2c(-c3ccccc3)cc(-c3ccccc3)nc2[nH]1    177 nM (antagonist)
CCCc1nc2c(-c3ccccc3)cc(-c3ccccc3)nc2[nH]1    114 nM (antagonist)
CC(C)Cc1nc2c(-c3ccccc3)cc(-c3ccccc3)nc2[nH]1    189 nM (antagonist)
O=c1[nH]c2nc(-c3ccccc3)cc(-c3ccccc3)c2[nH]1    192 nM (antagonist)
CC(C)c1nc2c(-c3ccccc3)cc(-c3ccccc3)nc2[nH]1    230 nM (antagonist)

Entry c1ccc(-c2cc(-c3ccccc3)c3nc[nH]c3n2)cc1 — recorded Ki = 39 nM (antagonist)

Entry Cc1nc2c(-c3ccccc3)cc(-c3ccccc3)nc2[nH]1 — recorded Ki = 375 nM (antagonist)

Entry CCC(CC)c1nc2c(-c3ccccc3)cc(-c3ccccc3)nc2[nH]1 — recorded Ki = 247 nM (antagonist)

Entry c1ccc(-c2cc(-c3ccccc3)c3nc(C4CCCCC4)[nH]c3n2)cc1 — recorded Ki = 194 nM (antagonist)

###

- tested_target: Adenosine receptor A1 (Homo sapiens)
- Sequence (P30542 whole entry): as the sequence (P30542 whole entry) above
- method_notes: Displacement of [3H]DPCPX from human adenosine A1 receptor expressed in CHO cells
- Format: cell-based
measured_quantity: Ki

Please review the following examples before continuing.
CC(C)Cc1nc2c(-c3ccccc3)cc(-c3ccccc3)nc2[nH]1    0.55 nM (antagonist)
CCc1nc2c(C)cc(C)nc2[nH]1    101 nM (antagonist)
O=c1[nH]c2nc(-c3ccccc3)cc(-c3ccccc3)c2[nH]1    8.6 nM (antagonist)

Entry c1ccc(-c2cc(-c3ccccc3)c3nc[nH]c3n2)cc1 — recorded Ki = 1.2 nM (antagonist)

###

- tested_target: Adenosine receptors; A1 & A2a (Homo sapiens) (UniProt P30542+P29274)
- method_notes: Selectivity for human adenosine A1 receptor over human adenosine A2A receptor
- Type: protein assay
measured_quantity: Ratio Ki
Could you respond with only the numeric value?

c1ccc(-c2cc(-c3ccccc3)c3nc(C4CCCCC4)[nH]c3n2)cc1    215
c1ccc(-c2cc(-c3ccccc3)c3nc[nH]c3n2)cc1    33

We next turn to a different compound, shown below.
Entry CC(C)c1nc2c(-c3ccccc3)cc(-c3ccccc3)nc2[nH]1 — recorded Ratio Ki = 377
